- Study System: Torsin-1A-interacting protein 1 (Homo sapiens) (UniProt Q5JTV8)
- Sequence (Q5JTV8 whole entry, looked up): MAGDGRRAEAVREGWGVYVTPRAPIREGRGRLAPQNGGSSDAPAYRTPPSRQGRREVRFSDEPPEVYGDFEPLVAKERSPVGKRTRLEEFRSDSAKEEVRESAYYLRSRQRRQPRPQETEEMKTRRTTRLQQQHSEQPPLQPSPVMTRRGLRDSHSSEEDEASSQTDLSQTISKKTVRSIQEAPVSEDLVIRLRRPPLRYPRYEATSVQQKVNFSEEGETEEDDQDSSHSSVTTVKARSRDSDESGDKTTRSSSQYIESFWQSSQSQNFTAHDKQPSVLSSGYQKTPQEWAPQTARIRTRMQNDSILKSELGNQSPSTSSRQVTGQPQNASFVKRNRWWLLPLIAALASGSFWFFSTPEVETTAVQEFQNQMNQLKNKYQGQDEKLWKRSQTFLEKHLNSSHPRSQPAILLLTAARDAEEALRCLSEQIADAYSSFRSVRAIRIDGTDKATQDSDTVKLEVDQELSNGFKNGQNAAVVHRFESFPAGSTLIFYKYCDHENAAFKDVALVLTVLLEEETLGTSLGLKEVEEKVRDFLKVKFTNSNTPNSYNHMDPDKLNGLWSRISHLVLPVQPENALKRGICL
- Measurement Protocol: LAP1 binders from COS7 cell lysate, primary screen, small-molecule microarray, 635/667 nm fluorescence (AID 1116)
- Assay Context: COS7-hLAP1 lysate binding, 635 nm fluorescence, higher = more signal
# if value of composite z-score reaches 0.4, tag 1 (yes); if it stays below, tag 0 (no)

Solved cases (8 shown):
- Compound: "Cc1ccc(S[C@]2(C(=O)NCCN3CCOCC3)CC(=O)N(Cc3ccccc3)[C@@H]2c2ccc(CO)cc2I)cc1"
  Label: "0 (no)"
- Compound: "CCC(CC)C(O)C1C=CC2C(=O)N(C)C(=O)C2N1Nc1ccccc1 (stereo not given)"
  Label: "1 (yes)"
- Compound: "COCCOC(=O)N1C(=O)[C@@]2(c3cc(C#Cc4ccc(OC)cc4)ccc31)[C@H](C(N)=O)[C@H]1C(=O)O[C@H](c3ccccc3)[C@H](c3ccccc3)N1[C@@H]2c1ccccc1OCCO"
  Label: "1 (yes)"
- Compound: "CN(C)CCCNC(=O)[C@@]1(C)c2ccccc2C(=O)N(Cc2cc(F)cc(C(F)(F)F)c2)[C@H]1c1ccc(CO)cc1"
  Label: "0 (no)"
- Compound: "CC(C)N1C(=O)c2ccccc2[C@](C)(C(=O)NCc2ccccc2)[C@@H]1c1ccc(CO)cc1"
  Label: "1 (yes)"
- Compound: "O=C1NC(=O)C2C1C=CC(C(O)C(c1ccccc1)c1ccccc1)N2Nc1ccc(Cl)cc1Cl (stereo not given)"
  Label: "0 (no)"
- Compound: "CCCC[C@@H]1C[C@H]1[C@@H](NC(=O)c1ccco1)c1ccc(C(=O)OC)cc1"
  Label: "0 (no)"
- Compound: "CN1C(=O)[C@]2(Cc3ccccc3)N=C(c3ccc(OCCCO)cc3)O[C@@H]2c2ccccc21"
  Label: "1 (yes)"

Entry `C=C(COC)/C(=C/C[C@@H](OC(C)=O)c1ccc(OCCO)cc1)c1cc(C(=O)OC)ccc1OC` : is its composite z-score no less than 0.4?
1 (yes)
